Origin of values: the supplement of paper PMC9112550

Recorded shrunken log2 fold change by entry
Test system: Escherichia coli TOP10;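 note: peptides expressed intracellularly from a pBAD plasmid library in pooled LB shake-flask culture, induced with 0.3% L-arabinose, DNA abundance read by NGS, three biological replicates, DESeq2 with apeglm shrinkage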
ASSAY_COMMENT: shrunken log2 fold change of peptide-encoding DNA abundance (4.5 h post-induction vs induction); higher = less antimicrobial activity (less host growth inhibition)
MEASUREMENT_CONTEXT: time post-induction: 4.5 h; library: site-saturation at positions 5, 18, 19, 20
READOUT_KIND: shrunken log2 fold change

• RRIRMRPPRLPRPRPRPAYYPRP = -0.3
• RRIRHRPPRLPRPRPRPGTFPRP = -0.132
• RRIRYRPPRLPRPRPRPNYLPRP = -0.161
• RRIRIRPPRLPRPRPRPMMYPRP = -0.13
• RRIRTRPPRLPRPRPRPESKPRP = 0.214
• RRIRHRPPRLPRPRPRPAFMPRP = -0.193
• RRIRPRPPRLPRPRPRPMAIPRP = -0.0296
• RRIRARPPRLPRPRPRPYYVPRP = -0.169
